Assembled from different publications: IC50 for IKKε (Homo sapiens, UniProt Q14164).
assay-readout: IC50 (µM)

compound	assay-readout	qualifier-operator	reading
O=C(NC1CCCC1)N1CC=C(c2c[nH]c3ncc(-c4ccc(CN5CCOCC5)s4)cc23)CC1	IC50	=	0.038
COc1cc(Nc2cc(-c3ccc(OC4CCOCC4)c(C#N)c3)ncn2)ncc1N1CCN(C)CC1	IC50	<	0.1
CN(CCO)C(=O)c1ccc(-c2cc3nccc(-c4ccc(OCC5CC5)c(C#N)c4)c3o2)cc1	IC50	<	0.3
CC(C)NC(=O)N1CC=C(c2c[nH]c3ncc(-c4cc(CN5CCOCC5)ccc4F)cc23)CC1	IC50	=	0.16
Cc1cc(NC(=O)c2cc(-c3cnn(Cc4ccccc4)c3)cnc2N)ccn1	IC50	=	0.34
CC(C)NC(=O)N1CCC(c2c[nH]c3ncc(-c4ccc(CN5CCOCC5)s4)cc23)=CC1C (centres unmarked)	IC50	=	0.0015
N#Cc1cc(-c2ccnc(Nc3ncc(C4CCNCC4)cn3)c2)ccc1OC1CCOCC1	IC50	=	0.082
COc1nc(Nc2cc(-c3ccc(OC4CCN(C(=O)[C@@H](C)O)CC4(F)F)c(C#N)c3)ncn2)ccc1C1CCN(C2COC2)CC1 (some centres unmarked)	IC50	<	0.1
